- Test system: Transient receptor potential cation channel subfamily C member 4 (mouse)
- MEASUREMENT_DESCRIPTION: TRPC4 modulation by TRPC6 hit compounds, confirmation, selectivity assay for TRPC6 modulator project, cell-based, HEK293 TRPC4/mu-opioid, membrane potential dye, mouse (AID 488927);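 for percent change from control (negative = decrease, positive = increase): plate controls were assay buffer wells for no effect and DAMGO maximal-effect wells for full effect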
- MEASUREMENT_SETUP: membrane potential fluorescence, at 10 µM
The other results are listed elsewhere or left out. Activity calls are given as the source filed them.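 Rule for the calls: active = membrane potential signal moved up or down beyond 5 SD of buffer control wells, in both duplicate plates, actives on both sides; inactive = the rest.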
ENDPOINT: percent change from control (negative = decrease, positive = increase)

COMPOUND	RESULT
Cc1cc(C)c2nc3nc(C)cc(C)c3c(N)c2c1	-31% (active)
Cn1c(/C(C#N)=C2/CCCCCN2)nc2ccccc21	inactive
CSCCC(NC(=O)c1ccc(=O)n(C)n1)c1nc2ccccc2[nH]1 (centres undefined)	inactive
O=S(=O)(c1cccc(Cn2nnc(-c3ccc(F)cc3)n2)c1)N1CCOCC1	inactive

---

- MEASUREMENT_DESCRIPTION: calcium flux activation in mu-opioid HEK293 cells, confirmation, counter-screen for TRPC4 activator project, cell-based, HEK293 mu-opioid receptor line (AID 449723);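 note: counter screen cells carry the mu-opioid receptor alone and lack TRPC4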
- MEASUREMENT_SETUP: Fluo-4 calcium fluorescence, at 10 µM; hits give high values
Active and inactive are the calls of the source.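 How the source made its calls: active means hit in primary screen, with calcium signal over 5 SD above buffer well mean in both duplicates; inactive means the rest.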

COMPOUND	activation
O=C(c1cccs1)N1CCN(c2ncc(Br)cn2)CC1	inactive
CC(C)c1ccc(NC(=S)N(C)CCc2ccccn2)cc1	inactive
O=C(C1CCCN(Cc2ccccc2)C1)N1CCc2ccccc2C1 (stereo not drawn)	inactive

---

- MEASUREMENT_DESCRIPTION: calcium flux inhibitors in TRPC4/5HT1a cells, confirmation, counter-screen for TRPC4 inhibitor project, cell-based, second counter screen, HEK293 TRPC4/5HT1a, Fluo-4 (AID 434978)
- MEASUREMENT_SETUP: Fluo-4 calcium flux, at 10 µM, serotonin added to trigger calcium flux
The source made the active and inactive calls.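 How the source made its calls: active means primary screen active whose calcium signal fell more than 3 SD beyond the full-serotonin control mean in both duplicate plates; inactive means the rest.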
Labels: T (active), F (inactive)

COMPOUND	CLASSIFICATION
Cc1ccc2oc(=O)c3cnn(CC(=O)NC4CCN(Cc5ccccc5)CC4)c3c2c1	F
Fc1ccc(C(c2nnnn2Cc2cccs2)N2CCN(C3CCCCC3)CC2)cc1 (stereo not drawn)	F
Cc1ccccc1OCC(O)Cn1c(=N)n(Cc2ccccc2)c2ccccc21 (stereo not drawn)	T
O=C(C1CCCN(Cc2ccncc2)C1)N1CCc2ccccc2C1 (stereo not drawn)	F
CN(C)C(CNC(=O)Cc1cccc(C(F)(F)F)c1)c1ccco1 (stereo not drawn)	F
COc1ccc(C(CNC(=O)Cc2ccc3ccccc3c2)N(C)C)cc1 (stereo not drawn)	F
Cc1ccc2c(nc3s/c(=C\c4ccc(-c5ccccc5C(=O)O)o4)c(=O)n32)c1C	T
CN(C)CCCN(C(=O)c1ccc(C(=O)c2ccccc2)cc1)c1nc2ccc(F)cc2s1	F

---

- MEASUREMENT_DESCRIPTION: parental HEK293 membrane potential modulation, confirmation, counter-screen for TRPC6 modulator project, cell-based (AID 488924)
- MEASUREMENT_SETUP: parental HEK293, membrane potential dye fluorescence; at 10 µM
The list shows a part of the results. Calls of active or inactive are those of the source.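 Rule for the calls: active = membrane potential signal moves up or down beyond 5 SD from buffer-only wells, on both duplicate plates; inactive = the rest.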
Possible outcomes: t for active, f for inactive

COMPOUND	CLASSIFICATION
O=C(CN1CCCCCC1)NCCN1C(=O)S/C(=C\c2ccccc2Cl)C1=O	f
CC(NC(=S)Nc1ccc(OC(F)F)cc1)c1ccc(F)cc1 (centres undefined)	f
Cc1cccc(NC(=S)NCCN(C2CCCCC2)C2CCCC2)c1	t
CSCCC(NC(=O)c1ccc(=O)n(C)n1)c1nc2ccccc2[nH]1 (centres undefined)	f
